molecular target: human DGKζ (Homo sapiens); construct: TVMV protease cleavage site (C); Hexa-His (C); made in house; host or cells: Sf9 insect cells (baculovirus, Bac-to-Bac); experiment: DGKζ LIPGLO assay (extruded liposome substrate), in vitro DGK inhibition; format: biochemical; conditions: DGKζ liposome (LIPGLO) assay; read-out: DGKz LIPGLO IC50
Sequence (Q13574 with tags, fused parts or gaps isoform Q13574-4): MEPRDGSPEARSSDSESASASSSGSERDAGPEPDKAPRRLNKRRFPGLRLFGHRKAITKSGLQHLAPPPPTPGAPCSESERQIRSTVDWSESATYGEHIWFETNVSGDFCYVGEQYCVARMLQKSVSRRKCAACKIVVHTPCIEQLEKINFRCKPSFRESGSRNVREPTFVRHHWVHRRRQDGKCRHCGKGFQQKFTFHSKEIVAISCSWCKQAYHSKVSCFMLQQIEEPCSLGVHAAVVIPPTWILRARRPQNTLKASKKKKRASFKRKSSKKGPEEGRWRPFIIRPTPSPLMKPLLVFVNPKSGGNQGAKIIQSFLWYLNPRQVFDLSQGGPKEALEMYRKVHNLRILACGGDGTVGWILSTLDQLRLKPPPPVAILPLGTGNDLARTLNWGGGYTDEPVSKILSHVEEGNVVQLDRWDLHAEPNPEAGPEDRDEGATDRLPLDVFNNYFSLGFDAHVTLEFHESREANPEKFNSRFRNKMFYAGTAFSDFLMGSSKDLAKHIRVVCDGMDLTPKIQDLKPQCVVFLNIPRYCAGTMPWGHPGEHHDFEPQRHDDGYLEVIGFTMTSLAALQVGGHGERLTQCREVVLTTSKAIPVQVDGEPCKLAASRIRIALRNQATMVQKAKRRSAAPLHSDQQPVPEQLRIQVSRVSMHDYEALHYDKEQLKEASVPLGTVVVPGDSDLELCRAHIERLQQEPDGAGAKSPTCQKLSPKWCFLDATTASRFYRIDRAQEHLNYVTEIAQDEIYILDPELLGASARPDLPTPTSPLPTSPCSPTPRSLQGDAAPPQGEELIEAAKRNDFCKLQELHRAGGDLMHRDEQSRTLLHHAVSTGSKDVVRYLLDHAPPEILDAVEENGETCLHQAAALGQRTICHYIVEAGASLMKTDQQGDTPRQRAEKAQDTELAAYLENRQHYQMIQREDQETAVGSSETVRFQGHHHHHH
Parameter: IC50. Scope: all listed entries.

{"compound": "C[C@@H]1CN(c2cc(=O)n(C)c3ccc(C#N)nc23)[C@@H](C)CN1C(c1ccc(F)cc1)c1nnnn1C(C)(C)C (single isomer, unassigned) [Example 770]", "targetOrTestSystem": "human DGKζ (Homo sapiens)", "IC50": "1700 nM"}
{"compound": "C[C@@H]1CN(c2cc(=O)n(C)c3ccc(C#N)nc23)[C@@H](C)CN1C(c1ccc(F)cc1)c1nc(C(C)(C)C)no1 (stereo partly drawn)", "targetOrTestSystem": "human DGKζ (Homo sapiens)", "IC50": "130 nM"}
{"compound": "C[C@@H]1CN(c2cc(=O)n(C)c3ccc(C#N)nc23)[C@@H](C)CN1C(c1ccc(F)cc1)c1noc(C(C)(C)C)n1 (single isomer, unassigned) [Example 764]", "targetOrTestSystem": "human DGKζ (Homo sapiens)", "IC50": "530 nM"}
{"compound": "C[C@@H]1CN(c2cc(=O)n(C)c3ccc(C#N)nc23)[C@@H](C)CN1C(c1ccc(F)cc1)c1nc(C2CCN(C)CC2)no1 (single isomer, unassigned) [Example 751]", "targetOrTestSystem": "human DGKζ (Homo sapiens)", "IC50": "17000 nM"}
{"compound": "C[C@@H]1CN(c2cc(=O)n(C)c3ccc(C#N)nc23)[C@@H](C)CN1C(c1ccc(Br)cc1)c1nc(C2CC2)no1 (stereo partly drawn) [Example 761]", "targetOrTestSystem": "human DGKζ (Homo sapiens)", "IC50": "41 nM"}
{"compound": "Cc1ccc(C(c2ccc(F)cc2Cl)N2C[C@H](C)N(c3c(C#N)c(=O)n(C)c4ccc(C#N)nc34)C[C@H]2C)nc1 (stereo partly drawn) [Example 832]", "targetOrTestSystem": "human DGKζ (Homo sapiens)", "IC50": "2700 nM"}

====

molecular target: human DGKα (Homo sapiens); construct: TVMV protease cleavage site (C); Hexa-His (C); made in house; host or cells: Sf9 insect cells (baculovirus, Bac-to-Bac); experiment: DGKα LIPGLO assay (extruded liposome substrate), in vitro DGK inhibition; format: biochemical; conditions: liposome (LIPGLO) assay; read-out: DGKa LIPGLO IC50
Sequence (P23743 with tags, fused parts or gaps): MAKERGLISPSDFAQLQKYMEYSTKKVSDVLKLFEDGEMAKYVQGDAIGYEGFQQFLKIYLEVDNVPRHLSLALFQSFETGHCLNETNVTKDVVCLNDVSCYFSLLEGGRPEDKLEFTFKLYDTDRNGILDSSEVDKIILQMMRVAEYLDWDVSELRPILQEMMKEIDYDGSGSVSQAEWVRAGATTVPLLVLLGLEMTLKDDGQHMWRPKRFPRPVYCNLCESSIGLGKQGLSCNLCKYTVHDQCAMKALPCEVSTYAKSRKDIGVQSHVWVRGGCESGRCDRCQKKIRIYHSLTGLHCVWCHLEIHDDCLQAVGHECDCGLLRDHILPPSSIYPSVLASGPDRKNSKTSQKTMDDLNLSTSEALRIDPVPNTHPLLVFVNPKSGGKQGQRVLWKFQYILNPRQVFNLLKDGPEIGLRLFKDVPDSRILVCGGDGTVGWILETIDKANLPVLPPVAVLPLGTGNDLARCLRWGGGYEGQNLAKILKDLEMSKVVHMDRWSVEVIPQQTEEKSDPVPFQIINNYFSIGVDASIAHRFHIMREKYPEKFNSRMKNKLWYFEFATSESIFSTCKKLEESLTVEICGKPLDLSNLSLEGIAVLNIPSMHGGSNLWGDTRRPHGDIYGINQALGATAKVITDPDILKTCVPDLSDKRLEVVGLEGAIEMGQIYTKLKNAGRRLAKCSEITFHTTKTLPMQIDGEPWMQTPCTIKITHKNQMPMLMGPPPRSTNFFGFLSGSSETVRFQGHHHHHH
Reported values of IC50 for individual entries

{"compound": "Cn1c(=O)cc(N2CCN(C(c3ccc(F)cc3)c3ccc(F)cc3)CC2c2ccccc2)c2nc(C#N)ccc21 (single isomer, unassigned) [Example 155]", "IC50": "240 µM"}
{"compound": "C[C@@H]1CN(c2cc(=O)n(C)c3ccc(C#N)nc23)[C@@H](C)CN1C(c1ccc(F)cc1)c1ccc(N2CCOCC2)cc1 (single isomer, unassigned) [Example 662]", "IC50": "> 250 µM"}
{"compound": "C[C@@H]1CN(c2cc(=O)n(C)c3ccc(C#N)nc23)[C@@H](C)CN1Cc1ccc(C#N)cc1F", "IC50": "0.2 µM"}
{"compound": "C[C@@H]1CN(c2cc(=O)n(C)c3ccc(C#N)nc23)[C@@H](C)CN1C(c1ccc(Cl)cc1)c1ccc2c(c1)OC(F)(F)O2 (single isomer, unassigned) [Example 657]", "IC50": "2.4 µM"}
{"compound": "CCC(c1ccc(OC(F)(F)F)cc1)N1C[C@H](CC)N(c2cc(=O)n(C)c3ccc(C#N)nc23)C[C@H]1CC (single isomer, unassigned) [Example 1060]", "IC50": "0.34 µM"}
{"compound": "COCC(F)(F)C(c1ccc(F)cc1)N1C[C@H](C)N(c2cc(=O)n(C)c3ccc(C#N)nc23)C[C@H]1C (single isomer, unassigned) [Example 1312]", "IC50": "0.1 µM"}
{"compound": "Cc1cccc(F)c1CN1C[C@H](C)N(c2cc(=O)n(C)c3ccc(C#N)nc23)C[C@H]1C", "IC50": "0.77 µM"}
{"compound": "CC[C@H]1CN(C(c2ccc(F)cc2)c2nc(C3CC3)cs2)[C@H](CC)CN1c1cc(=O)n(C)c2ccc(C#N)nc12 (stereo partly drawn) [Example 1067]", "IC50": "0.079 µM"}
{"compound": "COC(=O)C1CN(c2c(C#N)c(=O)n(C)c3ccc(Br)nc23)CCN1C(c1ccc(F)cc1)c1ccc(F)cc1 (stereo not drawn)", "IC50": "25 µM"}
{"compound": "CC[C@H]1CN(C(C)c2ccc(C3CC3)cc2)[C@H](CC)CN1c1cc(=O)n(C)c2ccc(C#N)nc12 (single isomer, unassigned) [Example 1356]", "IC50": "1.9 µM"}
{"compound": "C[C@@H]1CN(c2cc(=O)n(C)c3ccc(C#N)nc23)[C@@H](C)CN1C(c1ccc(F)cc1)c1ccns1 (stereo partly drawn) [Example 719]", "IC50": "0.4 µM"}
{"compound": "CC[C@@H]1CN(c2cc(=O)n(C)c3ccc(C#N)nc23)[C@@H](C)CN1C(c1ccc(OC(F)(F)F)cc1)C1CC1 (stereo partly drawn)", "IC50": "2.3 µM"}

Sourced from patent US10669272B2
